// values below are reported Binding strength of mutants (EC50 mutant/EC50 wild-type)
# Target under test: CD3 (antibody antigen coated on the ELISA plate in Examples 1 to 3) (Homo sapiens (Human)) (UniProt P07766)
# Sequence (P07766 23-126 limits assumed): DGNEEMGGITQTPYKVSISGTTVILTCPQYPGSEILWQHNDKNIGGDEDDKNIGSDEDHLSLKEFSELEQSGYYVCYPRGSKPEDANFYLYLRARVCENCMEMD
# Assay: ELISA, antigen coated, anti-human IgG-HRP; against wild-type anti-CD3 antibody
Give a plain numeric answer without units written out.

Consider the following illustrative entries.
anti-CD3 antibody mutant VL-W93C (antibody, V domains shown) VH: EVQLVESGGGLVQPGGSLRLSCAASGFTFSTYAMNWVRQAPGKGLEWVGRIRSKYNNYATYYADSVKDRFTISRDDSKNSLYLQMNSLKTEDTAVYYCARHGNFGNSYVSWFAYWGQGTLVTVSS VL: QTVVTQEPSLTVSPGGTVTLTCRSSTGAVTTSNYANWVQQKPGQAPRGLIGGTNKRAPGVPARFSGSLLGDKAALTLLGAQPEDEAEYFCALCYSNLWVFGGGTKLTVL	1.8
anti-CD3 antibody mutant VH-W111C (antibody, V domains shown) VH: EVQLVESGGGLVQPGGSLRLSCAASGFTFSTYAMNWVRQAPGKGLEWVGRIRSKYNNYATYYADSVKDRFTISRDDSKNSLYLQMNSLKTEDTAVYYCARHGNFGNSYVSCFAYWGQGTLVTVSS VL: QTVVTQEPSLTVSPGGTVTLTCRSSTGAVTTSNYANWVQQKPGQAPRGLIGGTNKRAPGVPARFSGSLLGDKAALTLLGAQPEDEAEYFCALWYSNLWVFGGGTKLTVL	2
anti-CD3 antibody mutant VH-M34C (antibody, V domains shown) VH: EVQLVESGGGLVQPGGSLRLSCAASGFTFSTYACNWVRQAPGKGLEWVGRIRSKYNNYATYYADSVKDRFTISRDDSKNSLYLQMNSLKTEDTAVYYCARHGNFGNSYVSWFAYWGQGTLVTVSS VL: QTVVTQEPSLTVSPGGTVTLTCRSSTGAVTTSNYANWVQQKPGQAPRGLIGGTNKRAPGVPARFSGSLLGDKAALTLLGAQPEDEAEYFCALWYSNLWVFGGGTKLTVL	1.1

Exercise: # lookup: Binding strength of mutants (EC50 mutant/EC50 wild-type) of anti-CD3 antibody mutant VH-F104C (antibody, V domains shown) VH: EVQLVESGGGLVQPGGSLRLSCAASGFTFSTYAMNWVRQAPGKGLEWVGRIRSKYNNYATYYADSVKDRFTISRDDSKNSLYLQMNSLKTEDTAVYYCARHGNCGNSYVSWFAYWGQGTLVTVSS VL: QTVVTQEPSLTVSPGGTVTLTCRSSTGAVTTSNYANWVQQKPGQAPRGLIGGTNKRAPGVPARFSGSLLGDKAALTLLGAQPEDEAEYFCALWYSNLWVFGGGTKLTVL
Solution: 1

Exercise: # lookup: Binding strength of mutants (EC50 mutant/EC50 wild-type) of anti-CD3 antibody mutant VL-N54C (antibody, V domains shown) VH: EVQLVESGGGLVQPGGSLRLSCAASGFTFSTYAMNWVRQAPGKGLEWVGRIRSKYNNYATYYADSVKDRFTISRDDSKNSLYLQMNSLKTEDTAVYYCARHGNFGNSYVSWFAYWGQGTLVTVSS VL: QTVVTQEPSLTVSPGGTVTLTCRSSTGAVTTSNYANWVQQKPGQAPRGLIGGTCKRAPGVPARFSGSLLGDKAALTLLGAQPEDEAEYFCALWYSNLWVFGGGTKLTVL
Solution: 1
